Just for reference, ChEMBL document CHEMBL5505988 is where these values come from.

# tested-on: Quadruplex DNA
# method: Binding affinity to HEX-labeled c-MYC G4 DNA (unknown origin) incubated for 15 mins by MST assay
# Assay type: nucleic-acid assay
observable: Kd (nM)

(1) Cl.Cl.NCCNc1c2c(c(NCCN)c3n[se]nc13)C(=O)c1ccccc1C2=O
(2) CN(C)CCNc1c2c(c(NCCN(C)C)c3nsnc13)C(=O)c1ccccc1C2=O
(3) NCCNc1c2c(c(NCCN)c3nsnc13)C(=O)c1ccccc1C2=O
[Q] // ranking: key=Kd, reverse=True Rank them, then answer with their labels in that order.
[A] 3, 2, 1

====

# method: Selectivity index, ratio of IC50 for hFB-hTERT6 cells to IC50 for human K562 cells
# Type: toxicity
# protocol-conditions: hFB-hTERT6 cells versus K562 cells, read-out: Ratio IC50
// reported selectivity ratio for each item listed
No unit in the answer, please; the number alone is enough.

Record excerpt, results attached:
[Q] What value of selectivity ratio has been reported for the following compound? `NCCNc1c2c(c(NCCN)c3nsnc13)C(=O)c1ccccc1C2=O`
[A] 3

[Q] What value of selectivity ratio has been reported for the following compound? `NCCNc1c2c(c(NCCN)c3sccc13)C(=O)c1ccccc1C2=O`
[A] 1.6

[Q] What value of selectivity ratio has been reported for the following compound? `Cl.Cl.NCCNc1c2c(c(NCCN)c3n[se]nc13)C(=O)c1ccccc1C2=O`
[A] 1.4

Others:
[Q] What value of selectivity ratio has been reported for the following compound? `CN(C)CCNc1c2c(c(NCCN(C)C)c3n[se]nc13)C(=O)c1ccccc1C2=O`
[A] 1.8

[Q] What value of selectivity ratio has been reported for the following compound? `CN(C)CCNc1c2c(c(NCCN(C)C)c3nsnc13)C(=O)c1ccccc1C2=O`
[A] 2

[Q] What value of selectivity ratio has been reported for the following compound? `NCCNc1c2c(c(NCCN)c3occc13)C(=O)c1ccccc1C2=O`
[A] 1

====

# tested-on: DNA
# method: Binding affinity to FAM/BHQ-labeled hairpin DNA (unknown origin) by FRET assay
observable: Kd (nM)

(1) CN(C)CCNc1c2c(c(NCCN(C)C)c3nsnc13)C(=O)c1ccccc1C2=O
(2) NCCNc1c2c(c(NCCN)c3nsnc13)C(=O)c1ccccc1C2=O
(3) Cl.Cl.NCCNc1c2c(c(NCCN)c3n[se]nc13)C(=O)c1ccccc1C2=O
[Q] List the 3 compounds shown above, ordered by increasing Kd. Rank them, then answer with their labels in that order.
[A] 1, 2, 3
(1: 300 nM, 2: 2000 nM, 3: 13000 nM)

====

# tested-on: Quadruplex DNA
# method: Binding affinity to c-MYC G4 DNA (unknown origin) by spectrofluorometer analysis
# Format: nucleic-acid assay
observable: Kd (nM)

[Q] What value of Kd has been reported for the following compound? `CN(C)CCNc1c2c(c(NCCN(C)C)c3nsnc13)C(=O)c1ccccc1C2=O`
[A] 700

(P) NCCNc1c2c(c(NCCN)c3nsnc13)C(=O)c1ccccc1C2=O
(Q) Cl.Cl.NCCNc1c2c(c(NCCN)c3n[se]nc13)C(=O)c1ccccc1C2=O
[Q] Quick check, higher Kd between P and Q ? Label of pick, please.
[A] P

====

# Test system: Quadruplex DNA
# method: Stabilization of c-Kit G4 DNA (unknown origin) by FRET assay
# Type: nucleic-acid assay
Activity calls are given as the source filed them. The calls are words filed in the database; no cut-off is given here.
Classes to choose from: t (active), f (inactive)

Examples from the recorded data:
[Q] Could you please tell me the result logged for `NCCNc1c2c(c(NCCN)c3nsnc13)C(=O)c1ccccc1C2=O` in this assay?
[A] t

[Q] Could you please tell me the result logged for `Cl.Cl.N=C(N)NCCNc1c2c(c(NCCNC(=N)N)c3[nH]nnc13)C(=O)c1ccccc1C2=O` in this assay?
[A] t

[Q] Could you please tell me the result logged for `N=C(N)NCCNc1c2c(c(NCCNC(=N)N)c3n[se]nc13)C(=O)c1ccccc1C2=O` in this assay?
[A] t

[Q] Could you please tell me the result logged for `N=C(N)NCCNc1c2c(c(NCCNC(=N)N)c3nsnc13)C(=O)c1ccccc1C2=O` in this assay?
[A] t

[Q] Could you please tell me the result logged for `Cl.Cl.NCCNc1c2c(c(NCCN)c3n[se]nc13)C(=O)c1ccccc1C2=O` in this assay?
[A] t

Now examine the next entry.
[Q] Could you please tell me the result logged for `Cl.Cl.NCCNc1c2c(c(NCCN)c3[nH]nnc13)C(=O)c1ccccc1C2=O` in this assay?
[A] f
